Just for reference, the RNAGym collection of RNA variant scans (doi:10.7554/elife.80360) is where these values come from.

For each entry below, report its self-cleavage value.
B1: Twister Ribozyme (parent)
chain: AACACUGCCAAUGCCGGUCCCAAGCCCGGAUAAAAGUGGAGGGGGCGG

- Variants of: B1
- ASSAY DETAILS: self-cleavage, relative activity (ratio to wild type); higher = more cleavage; co-transcriptional

{"MUTANT ID": "U12A G28U", "ENDPOINT RESULT": 1.06}

Value sought for every listed variant: self-cleavage.
1. A4G A10C
2. A11U C27A
3. C26G G45A
4. C27A A30C

Return:
0.762
0.66
0.154
0.12
